Test system IRAK4 (Homo sapiens (Human)), pIC50 listed for each of the compounds.
Answer as the number alone; pIC50 is minus log10 of concentration in mol/L.

{"columns": ["compound", "system", "pIC50"],
 "data": [
  ["COC(=O)N1CC(C#Cc2cnc(OC[C@@H]3CCC(=O)N3)c3cc(OC(C)C)c(C(N)=O)cc23)C1 [Compound I-28]", "IRAK4 (Homo sapiens (Human))", 8.20],
  ["CC(C)Oc1cc2c(OC[C@@H]3CC(F)(F)C(=O)N3)ncc(C#CC3CN(C(=O)OC(C)(C)C)C3)c2cc1C(N)=O [Compound I-62]", "IRAK4 (Homo sapiens (Human))", 7.71],
  ["CC(C)Oc1cc2c(O[C@@H]3CCCN(C(=O)CC#N)C3)ncc(C#CC3CCN(C(=O)OC(C)(C)C)CC3)c2cc1C(N)=O [Compound I-95]", "IRAK4 (Homo sapiens (Human))", 7.16],
  ["CC(C)Oc1cc2c(O[C@@H]3CCCNC3)ncc(-c3cnn(C4CCC4)c3)c2cc1C(N)=O [Compound I-109]", "IRAK4 (Homo sapiens (Human))", 6.77]
]}

# query: pIC50 of entry CC(C)Oc1cc2c(OC[C@@H]3CCC(=O)N3)ncc(C#CC3CCN(C(C)C)CC3)c2cc1C(N)=O [Compound I-19]
8.17

# query: pIC50 of entry CC(C)Oc1cc2c(OC[C@@H]3CC(F)(F)C(=O)N3)ncc(-c3cnn([C@H]4C[C@@H](N(C)C)C4)c3)c2cc1C(N)=O [Compound I-73]
8.52

# query: pIC50 of entry CC(C)Oc1cc2c(OC[C@@H]3CC(F)(F)C(=O)N3)ncc(-c3cnn(C4CCCC4)c3)c2cc1C(N)=O [Compound I-69]
8.29

# query: pIC50 of entry CC(C)Oc1cc2c(OC[C@@H]3CCC(=O)N3)ncc(C#CC3CCN(C)CC3)c2cc1C(N)=O [Compound I-18]
8.64

# query: pIC50 of entry CC(C)Oc1cc2c(OC[C@@H]3CC(F)(F)C(=O)N3)ncc(C#CC3(O)CCNCC3)c2cc1C(N)=O [Compound I-53]
8.20

# query: pIC50 of entry CC(C)Oc1cc2c(O[C@@H]3CCCN(C(=O)CC#N)C3)ncc(C#CC3(O)CCN(C)CC3)c2cc1C(N)=O [Compound I-94]
7.25

====

- system: IRAK4 (Homo sapiens (Human), UniProt Q9NWZ3)
- Sequence (Q9NWZ3 whole entry): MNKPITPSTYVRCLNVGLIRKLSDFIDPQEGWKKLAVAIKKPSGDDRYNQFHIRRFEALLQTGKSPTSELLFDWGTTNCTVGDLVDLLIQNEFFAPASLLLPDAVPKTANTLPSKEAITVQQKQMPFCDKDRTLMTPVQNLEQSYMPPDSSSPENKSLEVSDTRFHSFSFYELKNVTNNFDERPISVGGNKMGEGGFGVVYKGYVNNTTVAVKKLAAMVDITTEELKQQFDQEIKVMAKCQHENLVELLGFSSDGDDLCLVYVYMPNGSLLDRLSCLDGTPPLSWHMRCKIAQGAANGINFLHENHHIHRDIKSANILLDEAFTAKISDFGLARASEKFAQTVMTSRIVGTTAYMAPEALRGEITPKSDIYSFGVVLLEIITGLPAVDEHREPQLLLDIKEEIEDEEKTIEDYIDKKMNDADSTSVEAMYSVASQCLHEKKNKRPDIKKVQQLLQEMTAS
- test.details: IRAK4 ADP-Glo Assay
- Format: biochemical
- reported.conditions: MBP substrate
List of pIC50 values.
Answer as the number alone; pIC50 is minus log10 of concentration in mol/L.

# query: pIC50 of entry CC(C)Oc1cc2c(O[C@@H]3CCCNC3)ncc(-c3cnn(C4CCOCC4)c3)c2cc1C(N)=O
5.84

====

Test system IRAK4 (Homo sapiens (Human), UniProt Q9NWZ3), IC50 listed for each of the molecules.
Kindly answer with a numeric value in nM, unit omitted.

{"columns": ["smiles.text", "result.units", "IC50"],
 "data": [
  ["CC(C)Oc1cc2c(OC[C@@H]3CCC(=O)N3)ncc(C#CC(C)(C)O)c2cc1C(N)=O", "nM", 12.5],
  ["CC(C)Oc1cc2c(OC[C@@H]3CCC(=O)N3)ncc(-c3cn[nH]c3)c2cc1C(N)=O", "nM", 7.6],
  ["CC(C)Oc1cc2c(O[C@@H]3CCCN(C(=O)CC#N)C3)ncc(C#C[C@H]3CC[C@](C)(O)CC3)c2cc1C(N)=O", "nM", 34.8]
]}

Please examine the following record next.
# query: IC50 of entry CC(C)Oc1cc2c(O[C@@H]3CCCN(C(=O)CC#N)C3)ncc(C#CC3CCN(C)CC3)c2cc1C(N)=O
15.4
